# maps each entry to its logkw-pH 8.0
Assay: IS-RPLC retention on silica-based C18 column, logkw by linear solvent strength model
Type: physicochemical
Settings: pH 8.0; methanol/20 mmol/L ammonium phosphate buffer, Welch Xtimate C18, 30 °C; 100% aqueous extrapolation
Form: value (number only, do not type unit).

Please review the following examples before continuing.
{"columns": ["COMPOUND", "logkw-pH 8.0"],
 "data": [
  ["Cc1cc(C)nc(C)c1", 2.23],
  ["Nc1cccc(S(=O)(=O)c2cccc(N)c2)c1", 1.83],
  ["c1ccc(CNCc2ccccc2)cc1", 2.99],
  ["Nc1ccc(Br)cc1", 1.98]
]}

QUERY: Which logkw-pH 8.0 is reported for this compound? `Cc1ccncc1`
RESULT: 1.41

QUERY: Field request: logkw-pH 8.0 | item: `COc1nc(C)nc(N)n1`
RESULT: 1.36

Cited source: paper PMC10005301
